assay: Solvent solubility screen; type: physicochemical; conditions: 1-propanol, 40 °C, organic solvent or mixture, thermodynamic from solid; read-out: Approximate Solubility

>  <compound_structure>
COC(=O)c1ccc2c(c1)NC(=O)/C2=C(\Nc1ccc(N(C)C(=O)CN2CCN(C)CC2)cc1)c1ccccc1

>  <solubility>
< 10000 µg/mL

$$$$

###

test: Inhaled pharmacokinetics of nintedanib salt forms (intratracheal); type: in vivo, C57BL/6 mice; conditions: female, C57BL/6, mouse, lung (whole lung homogenate), inhaled or intranasal, 1 mg/kg, lung (whole lung homogenate); 1.0 mg/kg IT; C57BL/6 mice; read-out: Elimination half-life (alpha-phase)

>  <compound>
COC(=O)c1ccc2c(c1)NC(=O)/C2=C(\Nc1ccc(N(C)C(=O)CN2CCN(C)CC2)cc1)c1ccccc1 [Nintedanib esylate]

>  <result_unit>
min

>  <half-life>
2.9

$$$$
